The reader will find reported shrunken log2 fold change values listed item by item below.
# System: Escherichia coli TOP10
# MEASUREMENT NOTES: shrunken log2 fold change of peptide-encoding DNA abundance (4.5 h post-induction vs induction); higher = less antimicrobial activity (less host growth inhibition)
# CONDITION: time post-induction: 4.5 h; library: site-saturation at positions 5, 18, 19, 20

Sample answers from the record:
SEQUENCE STRING	DATA VALUE
RRIRARPPRLPRPRPRPMTDPRP	-0.414
RRIRLRPPRLPRPRPRPQNVPRP	-0.523
RRIRNRPPRLPRPRPRPRVDPRP	0.0415
RRIRDRPPRLPRPRPRPAVHPRP	0.16
RRIRRRPPRLPRPRPRPITSPRP	-0.00199
RRIRYRPPRLPRPRPRPASPPRP	-0.161
RRIRWRPPRLPRPRPRPKKHPRP	0.293
RRIRARPPRLPRPRPRPWIRPRP	-0.132

Ask: Returns the measured shrunken log2 fold change for the input sequence. Input: RRIRCRPPRLPRPRPRPCWMPRP
Result: -0.404

Ask: Returns the measured shrunken log2 fold change for the input sequence. Input: RRIRIRPPRLPRPRPRPNMHPRP
Result: -0.805

Ask: Returns the measured shrunken log2 fold change for the input sequence. Input: RRIRPRPPRLPRPRPRPTMRPRP
Result: 0.744

Ask: Returns the measured shrunken log2 fold change for the input sequence. Input: RRIRYRPPRLPRPRPRPIYQPRP
Result: -0.614

Ask: Returns the measured shrunken log2 fold change for the input sequence. Input: RRIRKRPPRLPRPRPRPRHCPRP
Result: 0.0472

Ask: Returns the measured shrunken log2 fold change for the input sequence. Input: RRIRFRPPRLPRPRPRPVETPRP
Result: -0.0497

Ask: Returns the measured shrunken log2 fold change for the input sequence. Input: RRIRSRPPRLPRPRPRPAMWPRP
Result: 0.0276

Ask: Returns the measured shrunken log2 fold change for the input sequence. Input: RRIRNRPPRLPRPRPRPPTRPRP
Result: 0.29

Ask: Returns the measured shrunken log2 fold change for the input sequence. Input: RRIRVRPPRLPRPRPRPDLMPRP
Result: -0.00839

Ask: Returns the measured shrunken log2 fold change for the input sequence. Input: RRIRRRPPRLPRPRPRPDPIPRP
Result: 0.227

Ask: Returns the measured shrunken log2 fold change for the input sequence. Input: RRIRYRPPRLPRPRPRPNKMPRP
Result: -1.19

###

# Tested on: Escherichia coli TOP10
# MEASUREMENT NOTES: shrunken log2 fold change of peptide-encoding DNA abundance (4.5 h post-induction vs induction); higher = less antimicrobial activity (less host growth inhibition)
# CONDITION: time post-induction: 4.5 h; library: site-saturation at positions 5, 18, 19, 20
The reader will find reported shrunken log2 fold change values listed item by item below.
Kindly provide the number alone.

SEQUENCE STRING	shrunken log2 fold change
RRIRKRPPRLPRPRPRPYCEPRP	-0.102
RRIRMRPPRLPRPRPRPFWCPRP	0.314
RRIRWRPPRLPRPRPRPEHKPRP	0.278
RRIRMRPPRLPRPRPRPLKHPRP	-0.0893
RRIRFRPPRLPRPRPRPKSSPRP	-0.103
RRIRERPPRLPRPRPRPDAPPRP	0.0716

Ask: Returns the measured shrunken log2 fold change for the input sequence. Input: RRIRWRPPRLPRPRPRPIQQPRP
Result: 0.0331

Ask: Returns the measured shrunken log2 fold change for the input sequence. Input: RRIRSRPPRLPRPRPRPMILPRP
Result: 0.0266

Ask: Returns the measured shrunken log2 fold change for the input sequence. Input: RRIRERPPRLPRPRPRPCFLPRP
Result: -0.647

Ask: Returns the measured shrunken log2 fold change for the input sequence. Input: RRIRYRPPRLPRPRPRPLRGPRP
Result: 0.561

Ask: Returns the measured shrunken log2 fold change for the input sequence. Input: RRIRMRPPRLPRPRPRPEFGPRP
Result: 1.22

Ask: Returns the measured shrunken log2 fold change for the input sequence. Input: RRIRGRPPRLPRPRPRPRFFPRP
Result: 0.741

Ask: Returns the measured shrunken log2 fold change for the input sequence. Input: RRIRRRPPRLPRPRPRPPKLPRP
Result: 0.0716

Ask: Returns the measured shrunken log2 fold change for the input sequence. Input: RRIRKRPPRLPRPRPRPMKSPRP
Result: 0.37

Ask: Returns the measured shrunken log2 fold change for the input sequence. Input: RRIRHRPPRLPRPRPRPCLQPRP
Result: -0.148

Ask: Returns the measured shrunken log2 fold change for the input sequence. Input: RRIRDRPPRLPRPRPRPPERPRP
Result: 0.0665

Ask: Returns the measured shrunken log2 fold change for the input sequence. Input: RRIRNRPPRLPRPRPRPNCRPRP
Result: -0.0373

Ask: Returns the measured shrunken log2 fold change for the input sequence. Input: RRIRWRPPRLPRPRPRPHILPRP
Result: -0.358

Ask: Returns the measured shrunken log2 fold change for the input sequence. Input: RRIRMRPPRLPRPRPRPKIPPRP
Result: 0.365

Ask: Returns the measured shrunken log2 fold change for the input sequence. Input: RRIRQRPPRLPRPRPRPYREPRP
Result: -0.0135

Ask: Returns the measured shrunken log2 fold change for the input sequence. Input: RRIRCRPPRLPRPRPRPWYQPRP
Result: -0.272

Ask: Returns the measured shrunken log2 fold change for the input sequence. Input: RRIRDRPPRLPRPRPRPGHGPRP
Result: -0.0236

###

# Test system: Escherichia coli TOP10
# MEASUREMENT NOTES: shrunken log2 fold change of peptide-encoding DNA abundance (4.5 h post-induction vs induction); higher = less antimicrobial activity (less host growth inhibition)
# CONDITION: time post-induction: 4.5 h; library: site-saturation at positions 5, 18, 19, 20
PROPERTY LABEL: shrunken log2 fold change
Kindly provide the number alone.

Ask: Returns the measured shrunken log2 fold change for the input sequence. Input: RRIRKRPPRLPRPRPRPRVRPRP
Result: 0.755

Ask: Returns the measured shrunken log2 fold change for the input sequence. Input: RRIRPRPPRLPRPRPRPRGVPRP
Result: 0.347

Ask: Returns the measured shrunken log2 fold change for the input sequence. Input: RRIRGRPPRLPRPRPRPDDDPRP
Result: 0.0442

Ask: Returns the measured shrunken log2 fold change for the input sequence. Input: RRIRNRPPRLPRPRPRPSGRPRP
Result: -0.0659

Ask: Returns the measured shrunken log2 fold change for the input sequence. Input: RRIRPRPPRLPRPRPRPMIPPRP
Result: -0.124

Ask: Returns the measured shrunken log2 fold change for the input sequence. Input: RRIRLRPPRLPRPRPRPNCAPRP
Result: 0.415

Ask: Returns the measured shrunken log2 fold change for the input sequence. Input: RRIRQRPPRLPRPRPRPPHEPRP
Result: 0.559

Ask: Returns the measured shrunken log2 fold change for the input sequence. Input: RRIRYRPPRLPRPRPRPASFPRP
Result: -0.138

Ask: Returns the measured shrunken log2 fold change for the input sequence. Input: RRIRFRPPRLPRPRPRPKVIPRP
Result: -0.212

Ask: Returns the measured shrunken log2 fold change for the input sequence. Input: RRIRLRPPRLPRPRPRPFDRPRP
Result: -0.38

Ask: Returns the measured shrunken log2 fold change for the input sequence. Input: RRIRQRPPRLPRPRPRPQAIPRP
Result: 0.0712

###

# System: Escherichia coli TOP10
# MEASUREMENT NOTES: shrunken log2 fold change of peptide-encoding DNA abundance (4.5 h post-induction vs induction); higher = less antimicrobial activity (less host growth inhibition)
# CONDITION: time post-induction: 4.5 h; library: site-saturation at positions 5, 18, 19, 20
Label yes (1) when shrunken log2 fold change is at or above -0.1; otherwise label no (0).

Ask: Quick check, shrunken log2 fold change >= -0.1? RRIRARPPRLPRPRPRPSKVPRP
Result: yes (1)

Ask: Quick check, shrunken log2 fold change >= -0.1? RRIRHRPPRLPRPRPRPDGPPRP
Result: yes (1)

Ask: Quick check, shrunken log2 fold change >= -0.1? RRIRARPPRLPRPRPRPGSPPRP
Result: yes (1)

Ask: Quick check, shrunken log2 fold change >= -0.1? RRIRGRPPRLPRPRPRPSICPRP
Result: yes (1)

###

# Test system: Escherichia coli TOP10;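 further: peptides expressed intracellularly from a pBAD plasmid library in pooled LB shake-flask culture, induced with 0.3% L-arabinose, DNA abundance read by NGS, three biological replicates, DESeq2 with apeglm shrinkage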
# MEASUREMENT NOTES: shrunken log2 fold change of peptide-encoding DNA abundance (4.5 h post-induction vs induction); higher = less antimicrobial activity (less host growth inhibition)
# CONDITION: time post-induction: 4.5 h; library: site-saturation at positions 5, 18, 19, 20
PROPERTY LABEL: shrunken log2 fold change

Sample answers from the record:
SEQUENCE STRING	shrunken log2 fold change
RRIRVRPPRLPRPRPRPRRAPRP	0.751
RRIRTRPPRLPRPRPRPVIFPRP	-0.335

Now for the sequence whose shrunken log2 fold change we want.
Ask: Returns the measured shrunken log2 fold change for the input sequence. Input: RRIRARPPRLPRPRPRPGDMPRP
Result: 0.374
